Attribution: patent US20240115722A1

SYSTEM NAME: T1, recombinant human EphA5 (rhEphA5) antigen (human, UniProt P54756 25-573)
T1 construct: also called human EphA5 (R and D systems, Cat. No. 3036-A5); recombinant EphA5
T1 sequence (P54756 25-573 limits assumed): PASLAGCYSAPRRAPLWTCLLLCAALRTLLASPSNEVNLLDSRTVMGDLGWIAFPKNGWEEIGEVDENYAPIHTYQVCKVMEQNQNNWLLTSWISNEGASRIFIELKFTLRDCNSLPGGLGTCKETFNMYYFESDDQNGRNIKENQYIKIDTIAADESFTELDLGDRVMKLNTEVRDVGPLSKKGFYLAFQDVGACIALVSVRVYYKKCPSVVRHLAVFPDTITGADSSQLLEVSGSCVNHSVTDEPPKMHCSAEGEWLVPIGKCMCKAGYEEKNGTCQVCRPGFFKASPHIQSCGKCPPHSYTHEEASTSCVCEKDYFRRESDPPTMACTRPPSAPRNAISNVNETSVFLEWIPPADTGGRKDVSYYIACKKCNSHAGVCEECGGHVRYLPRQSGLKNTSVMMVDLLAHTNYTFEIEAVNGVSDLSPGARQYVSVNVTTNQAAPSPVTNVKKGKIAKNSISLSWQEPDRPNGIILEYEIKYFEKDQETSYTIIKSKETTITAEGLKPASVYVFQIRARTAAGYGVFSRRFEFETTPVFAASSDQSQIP
TEST DESCRIPTION: SPR single-cycle kinetics (Biacore T200), IgG from HEK supernatant captured on anti-human IgG CM5 chip, rhEphA5 as analyte, 1:1 fit
Parameters: reference not given here
Description: Kinetic analysis was carried out on a Biacore T200. Each antibody was captured on a CM5 chip coupled with an anti-human IgG using standard amine chemistry before increasing concentrations of antigen were injected and a single off-rate was determined. Kinetic experiments were performed at 25° C. on a Biacore T200 running Biacore T200 Control software V2.0.1 and Evaluation software V3.0 (Cytiva, Uppsala, Sweden). […]
Hi there, I'd appreciate the recorded Relative KD for every entry that follows.

Here's what some known entries look like.
BINDER: chimeric VH0/VK0 antibody (murine 11C12 variable regions, human IgG1/kappa constant regions) (antibody, V domains shown, also called chimeric antibody) VH: EVTLKESGGGLVQPGGSRKLSCAASGFTFSTFGIHWVRQAPEKGLEWVAYISGASTTIYYADTVKGRFTISRDNPKNTLFLQMTSLRSEDTAMYYCARYGTSFPYGLDYWGQGTSVTVSS VL: DIVMTQSPGSLAVSLGQRATISCKASQSVDYDGDSYMNWYQQKPGQPPKLLIYGASNLESGIPARFSGSGSGTDFTLNIHPVEEEDAASYYCQQSNEDPFTFGSGTKLEIKR
Relative KD: 1
--
BINDER: VH6/VK5 humanized 11C12 antibody (antibody, human IgG1, kappa, V domains shown, Human IgG1/kappa; tested as HEK293 EBNA supernatant; also called H6K5) VH: EVQLVESGGGLVQPGGSLKLSCAASGFTFSTFGIHWVRQAPGKGLEWVASISGASTTIYYADSVKGRFTISRDNSKNTLYLQMNSLRAEDTAVYYCARYGTSFPYGLDYWGQGTLVTVSS VL: DIVMTQSPDSLAVSLGERATINCKSSQSVDYDGDSYMNWYQQKPGKAPKLLIYGASNLESGIPDRFSGSGSGTDFTLTISRLEPEDAAVYYCQQSNEDPFTFGQGTKLEIKR
Relative KD: 5.34
--
BINDER: VH4/VK4 humanized 11C12 antibody (antibody, human IgG1, kappa, V domains shown, Human IgG1/kappa; lead variant, tested as HEK supernatant and as protein purified from CHO; also called H4K4) VH: EVQLVESGGGLVQPGGSLKLSCAASGFTFSTFGIHWVRQAPGKGLEWVAYISGASTTIYYADTVKGRFTISRDNSKNTLYLQMNSLRAEDTAVYYCARYGTSFPYGLDYWGQGTLVTVSS VL: DIVMTQSPDSLAVSLGERATINCKSSQSVDYDGDSYMNWYQQKPGKAPKLLIYGASNLESGIPDRFSGSGSGTDFTLTISRLEPEDAASYYCQQSNEDPFTFGQGTKLEIKR
Relative KD: 0.79
--
BINDER: VH4/VK1 humanized 11C12 antibody (antibody, human IgG1, kappa, V domains shown, Human IgG1/kappa; tested as HEK293 EBNA supernatant; also called H4K1) VH: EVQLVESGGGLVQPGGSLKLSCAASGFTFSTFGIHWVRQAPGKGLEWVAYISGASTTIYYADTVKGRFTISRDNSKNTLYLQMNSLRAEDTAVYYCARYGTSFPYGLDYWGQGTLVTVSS VL: DIVMTQSPGSLAVSLGERATINCKASQSVDYDGDSYMNWYQQKPGKAPKLLIYGASNLESGIPDRFSGSGSGTDFTLTISRLEEEDAASYYCQQSNEDPFTFGQGTKLEIKR
Relative KD: 0.73
--
BINDER: VH5/VK1 humanized 11C12 antibody (antibody, human IgG1, kappa, V domains shown, Human IgG1/kappa; tested as HEK293 EBNA supernatant; also called H5K1) VH: EVQLVESGGGLVQPGGSLKLSCAASGFTFSTFGIHWVRQAPGKGLEWVAYISGASTTIYYADSVKGRFTISRDNSKNTLYLQMNSLRAEDTAVYYCARYGTSFPYGLDYWGQGTLVTVSS VL: DIVMTQSPGSLAVSLGERATINCKASQSVDYDGDSYMNWYQQKPGKAPKLLIYGASNLESGIPDRFSGSGSGTDFTLTISRLEEEDAASYYCQQSNEDPFTFGQGTKLEIKR
Relative KD: 0.71

In the following, a different binder is considered.
Could you please provide reported Relative KD for VH0/VK1 (antibody, human IgG1, kappa, V domains shown, tested as HEK supernatant; also called control antibody (chimeric heavy chain with humanized VK1 light chain)) VH: EVTLKESGGGLVQPGGSRKLSCAASGFTFSTFGIHWVRQAPEKGLEWVAYISGASTTIYYADTVKGRFTISRDNPKNTLFLQMTSLRSEDTAMYYCARYGTSFPYGLDYWGQGTSVTVSS VL: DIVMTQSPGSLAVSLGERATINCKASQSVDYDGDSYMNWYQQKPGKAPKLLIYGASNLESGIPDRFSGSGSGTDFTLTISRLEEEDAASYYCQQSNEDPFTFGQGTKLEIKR ? Thanks! 0.84
